# Test system: RAW-Dual (murine macrophage reporter line)
# Method Notes: NF-kB reporter (SEAP) activity fold change vs agonist alone; higher = enhanced NF-kB activity
# Test Settings: modulator concentration 10 µM; agonist: MPLA […]
Documented NF-kB reporter across a set of molecules
// return just the number, without any unit appended

Consider the following illustrative entries.
INSERT INTO measurements (molecule, measured_on, observed_measurement) VALUES
  ('COc1ccc(C(O)CN2CCN(c3cccc(C)c3C)CC2)cc1OC (stereo not given)', 'RAW-Dual (murine macrophage reporter line)', 0.95),
  ('O=S(=O)(Oc1cccc2ccccc12)c1ccc(F)cc1', 'RAW-Dual (murine macrophage reporter line)', 1.12),
  ('CC[C@H](C)C(=O)O[C@H]1CCC=C2C=C[C@H](C)[C@H](CC[C@@H]3C[C@@H](O)CC(=O)O3)[C@H]21', 'RAW-Dual (murine macrophage reporter line)', 1.04),
  ('CCC(C)(C)C(=O)Nc1ccc(C(C)=O)cc1', 'RAW-Dual (murine macrophage reporter line)', 0.953),
  ('O=S(=O)(Nc1nc2ccccc2nc1Nc1ccc2c(c1)OCCO2)c1cccs1', 'RAW-Dual (murine macrophage reporter line)', 1.13);

For reference, reported NF-kB reporter for CCOCC(=O)Nc1ccc(N2CCCCC2=O)c(C)c1 stands at 0.828

For reference, reported NF-kB reporter for COc1ccc(-n2cnc3cc(NC(C)=O)ccc32)cc1 stands at 0.885

For reference, reported NF-kB reporter for Cn1nc(-c2ccc(F)cc2)cc1C(=O)NCC1(CO)CC1 stands at 1.03

For reference, reported NF-kB reporter for CCCCCCc1cc2cc(-c3nc(-c4ccc(Oc5ccccc5)cc4)cs3)c(=O)oc2cc1O stands at 0.946

For reference, reported NF-kB reporter for O=C1CCCN1c1ccc(Cn2cc(-c3nc(-c4ccc(F)cc4)no3)ccc2=O)cc1 stands at 1.01

###

# System: RAW-Dual (murine macrophage reporter line)
# Method Notes: IRF reporter (Lucia luciferase) activity fold change vs agonist alone; higher = enhanced IRF activity
# Test Settings: modulator concentration 10 µM; agonist: MPLA […]
Documented IRF reporter across a set of compounds
// return just the number, without any unit appended

The compound COc1ccc(C(C)NC(=O)CCc2nnc3ccc(-c4ccc(C)c(C)c4)nn23)cc1OC (stereo not given) , tested on RAW-Dual (murine macrophage reporter line), showed IRF reporter of 0.623

The compound COc1ccc2sc(C)[n+](CCCS(=O)(=O)[O-])c2c1 , tested on RAW-Dual (murine macrophage reporter line), showed IRF reporter of 1.1

The compound COC(=O)C1=C(C)NC(=O)CC1c1c(F)cccc1Cl (stereo not given) , tested on RAW-Dual (murine macrophage reporter line), showed IRF reporter of 1.06

The compound CC(NC(=O)COc1ccc(C=NNC(=O)c2ccccc2O)cc1)c1ccccc1 (stereo not given) , tested on RAW-Dual (murine macrophage reporter line), showed IRF reporter of 1.2

The compound CCN(CCO)CCCOc1ccc2c(Nc3cc(CC(=O)Nc4cccc(F)c4)n[nH]3)ncnc2c1 , tested on RAW-Dual (murine macrophage reporter line), showed IRF reporter of 1.18

The compound Cc1c(C)c2c(c(C)c1O)CCC(C)(CCCC(C)CCCC(C)CCCC(C)C)O2 (stereo not given) , tested on RAW-Dual (murine macrophage reporter line), showed IRF reporter of 0.994

The compound Cc1cc(C)n(C2CC(=O)N(c3ccccc3)C2=O)n1 (stereo not given) , tested on RAW-Dual (murine macrophage reporter line), showed IRF reporter of 1.42

The compound Clc1cccc(C=Cc2nn3c(Cc4ccccc4)nnc3s2)c1 , tested on RAW-Dual (murine macrophage reporter line), showed IRF reporter of 1.44

The compound Cc1cccc(N=c2scc(-c3ccc([N+](=O)[O-])cc3)n2-c2cccc(C)c2C)c1C , tested on RAW-Dual (murine macrophage reporter line), showed IRF reporter of 1.11

The compound Cc1cccc(CS(=O)(=O)N2CCC(S(=O)(=O)c3nccn3C)CC2)c1 , tested on RAW-Dual (murine macrophage reporter line), showed IRF reporter of 1.05

###

# System: RAW-Dual (murine macrophage reporter line)
# Method Notes: viability score (confluency relative to resting cells, overnight) (fraction); higher = more viable, active = viable (0.7 or more)
# Test Settings: modulator concentration 10 µM
Would you mind answering with one of these outcomes? 1.0 = active, 0.0 = inactive

INSERT INTO assay_data (compound, cat) VALUES
  ('COc1ccc(-n2c(C)c([N+](=O)[O-])c3ccc(O)cc32)cc1', 1.0),
  ('Cl.N=C(N)NC(=O)c1nc(Cl)c(N)nc1N.O.O', 1.0),
  ('Cc1cc(C)nc(NC#N)n1', 1.0),
  ('CC(=O)Nc1nnc(S(N)(=O)=O)s1', 1.0),
  ('Cc1ccc(N2C(=O)C(Cl)=C(Nc3cccc(C)c3C)C2=O)cc1Cl', 1.0),
  ('O=S(=O)(c1cccc2ccccc12)n1nnc2ccccc21', 1.0),
  ('CC(=O)N1N=C(c2ccc(N(C)C)cc2)CC1c1ccccc1 (stereo unspecified)', 1.0),
  ('COc1ccccc1-c1noc(C2CN(S(=O)(=O)N(C)C)C2)n1', 1.0),
  ('COc1ccc(N(CC(=O)Nc2ccccc2C(F)(F)F)S(C)(=O)=O)cc1', 1.0),
  ('CC(C)(C)c1cc(NCc2ccccn2)n2ncc(-c3ccc(Cl)cc3)c2n1', 1.0);

q: # fetch the recorded call for CCCCCCCC(O)CC(CC1CCCCC1)C(=O)NN (stereo unspecified) here
a: 1.0

q: # fetch the recorded call for N=C(N)Nc1ccc(Cl)cc1 here
a: 1.0

q: # fetch the recorded call for CCN(CC)CCOC(=O)C(c1ccccc1)c1ccccc1.Cl here
a: 1.0

q: # fetch the recorded call for N#CCCC1(CCC#N)S(=O)(=O)CC(c2ccc(Cl)cc2)CS1(=O)=O here
a: 1.0

q: # fetch the recorded call for O=C1Nc2ccc(Cl)cc2[C@@](C#CC2CC2)(C(F)(F)F)O1 here
a: 0.0

###

Documented IRF reporter across a set of compounds
# System: RAW-Dual (murine macrophage reporter line)
# Method Notes: IRF reporter (Lucia luciferase) activity fold change vs agonist alone; higher = enhanced IRF activity
# Test Settings: modulator concentration 10 µM; agonist: 3'3'-cGAMP 10 ug/mL

INSERT INTO results (compound, observed_measurement) VALUES
  ('COc1ccc(OC)c2sc(NC(=O)C(C)C)nc12', 0.837),
  ('COC(=O)C1=C(C)NC(=O)CC1c1c(F)cccc1Cl (configuration not stated)', 0.87);

For reference, reported IRF reporter for CC(COc1ccccc1)N(CCCl)Cc1ccccc1.Cl (configuration not stated) stands at 0.053

For reference, reported IRF reporter for CC(O)C(=O)O.CN1CCN(c2ccc3nc(-c4c(N)c5c(F)cccc5[nH]c4=O)[nH]c3c2)CC1 stands at 2.41

For reference, reported IRF reporter for COC(CNS(=O)(=O)c1ccccc1Br)c1ccc(C)s1 (configuration not stated) stands at 0.86

For reference, reported IRF reporter for COC(=O)NN=Cc1cccs1 stands at 0.987

###

# Tested on: RAW-Dual (murine macrophage reporter line)
# Method Notes: IRF reporter (Lucia luciferase) activity fold change vs agonist alone; higher = enhanced IRF activity
# Test Settings: modulator concentration 10 µM; agonist: LPS 0.1 ug/mL
Documented IRF reporter across a set of molecules
// return just the number, without any unit appended

Consider the following illustrative entries.
INSERT INTO assay_data (molecule, observed_measurement) VALUES
  ('Cc1ccccc1C(=O)N1CC(S(=O)(=O)CC(C)C)C1', 1.04),
  ('O=C(CCN1C(=O)c2cccc([N+](=O)[O-])c2C1=O)Nc1ccc(Cl)cc1', 1.4),
  ('COc1c(OC)c2occc2c2oc(=O)ccc12', 0.586),
  ('CN1C[C@@H]2c3ccccc3Oc3ccc(Cl)cc3[C@H]2C1.O=C(O)/C=C\C(=O)O', 0.914),
  ('O=C(Nc1nc(CC(=O)N2CCOCC2)cs1)c1ccccc1', 1.24);

For reference, reported IRF reporter for COc1cccc2c1C(=O)c1c(O)c3c(c(O)c1C2=O)C[C@@](O)(C(=O)CO)C[C@@H]3O[C@@H]1C[C@H](N)[C@@H](O)[C@H](C)O1 [Prestw-1752] stands at 0.185

For reference, reported IRF reporter for O=S(=O)(c1ccc(F)cc1)N1CCC(c2nc3ccccc3[nH]2)CC1 stands at 1.01

For reference, reported IRF reporter for CC(C)(C)C1CCc2c(sc(NC(=O)c3ccc(F)cc3)c2C(N)=O)C1 (stereo not given) stands at 1.24

For reference, reported IRF reporter for Cc1[nH]c2ccc(Br)cc2c(=O)c1CN1CCCCC1 stands at 1.25

For reference, reported IRF reporter for Cn1c2c(c3ccccc31)CCCC2NC=O (stereo not given) stands at 1.36
